experiment: basal RPMI8226 viability, no added stimulus, profiling panel, cell-based, calcein-AM fluorescence, 48 h, PK04 Diversity Set (AID 1166); details: RPMI8226 myeloma viability, higher = more signal;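 further: cells grown under basal conditions without added stimulus; test concentration not given here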
This section presents compounds with their documented z-score values.
Returns: the value as a bare number; no unit string appended.

What value of measured z-score is listed for CCCC[C@@H]1C[C@H]1[C@@H](NC(=O)c1cccs1)c1ccc(-c2ccccc2)cc1 ?
-0.38

Would you mind doing CCC(CC)C(O)C1C=CC2C(=O)NC(=O)C2N1Nc1ccc(Cl)cc1Cl (centres undefined) as well?
-0.82

Would you mind doing NC(=O)NCC#Cc1ccc2c(c1)[C@]1(C(=O)N2)[C@H](c2ccccc2OCCO)N2[C@H](c3ccccc3)[C@H](c3ccccc3)OC(=O)[C@H]2[C@@H]1C(=O)Nc1nc2ccccc2s1 as well?
-0.048

Would you mind doing CN1C(=O)C2C=CC(C(O)C3CC=CCC3)N(N(c3ccccc3)c3ccccc3)C2C1=O (centres undefined) as well?
-0.785

====

assay: E. coli DRC41 culture turbidity changes, primary screen, E. coli filamentation inducer project, strain DRC41, OD650, 48 h (AID 1152);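 further: E. coli MC1000 strain DRC41 lacking acrAB efflux pump and sulA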; details: E. coli DRC41 (acrAB sulA), higher = more signal, called active from +8 up or from −8 down
// classify(record): look up z-score in ranges bottom (below -1), middle (-1 to below 0.08), top (0.08 or more)

Solved entries:
{"columns": ["molecule", "classification"],
 "data": [
  ["C=C(C)[C@@H]1CC=C(C(O)C2C=CC3C(=O)N(C)C(=O)C3N2Nc2ccccc2)CC1 (some centres not stated)", "bottom"],
  ["CCOC(=O)C[C@H]1[C@H](OC(=O)c2cc3ccccc3oc2=O)[C@@H](NC(=O)c2ccccc2)c2cc(OCCCO)ccc2N1C(=O)c1ccc2ccccc2n1", "middle"],
  ["CCCCCCc1nc(-c2ccc(OC)nc2)cc2c1[Si](C(C)C)(C(C)C)O[C@H]2c1ccccc1", "bottom"],
  ["[N-]=[N+]=Nc1ccccc1[C@@H]1OC(c2ccc(OCCCO)cc2)=N[C@]1(Cc1ccccc1)C(=O)N1CCOCC1", "top"],
  ["CCCC#C[Si](O[C@H](CC)c1cn(Cc2cccc(Cl)c2)nn1)(C(C)C)C(C)C", "top"],
  ["COc1ccc(C#Cc2ccc3c(c2)[C@]2(C(=O)N3)[C@H](C(=O)Nc3nc4ccccc4s3)[C@H]3C(=O)O[C@H](c4ccccc4)[C@H](c4ccccc4)N3[C@@H]2c2ccc(O)cc2)cc1", "top"]
]}

Exam item: assign CCCCN1CC=CC23O[C@@H]4C=CCCOC(=O)C4[C@H]2C(=O)N(CCCCCCO)[C@@H]3C1=O (some centres not stated) to the correct category.
middle

Would you mind doing CO[C@H]1O[C@H](CO)[C@@H](OC(=O)Nc2cccc(F)c2)[C@H](OC(=O)Nc2ccccc2)[C@@H]1OC(=O)Nc1ccccc1 as well?
bottom

Would you mind doing COC(=O)C(CC#Cc1ccc2c(c1)[C@]1(C(=O)N2)[C@H](C(=O)Nc2nc3ccccc3s2)[C@H]2C(=O)O[C@H](c3ccccc3)[C@H](c3ccccc3)N2[C@@H]1c1ccc(O)cc1)C(=O)OC as well?
bottom

Would you mind doing COCCOC(=O)N1C(=O)[C@@]2(c3cc(C#Cc4ccc(OC)cc4)ccc31)[C@H](c1ccc(OCCO)cc1)N1[C@H](c3ccccc3)[C@H](c3ccccc3)OC(=O)[C@H]1[C@@H]2C(=O)N1CCN(c2ncccn2)CC1 as well?
middle

Would you mind doing CO[C@H]1O[C@H](CO)[C@@H](OC(=O)Nc2ccc(Oc3ccccc3)cc2)[C@H](OC(=O)Nc2ccc3c(c2)OCO3)[C@H]1OC(=O)Nc1ccc2c(c1)OCO2 as well?
top

Would you mind doing COc1ccc([Si](C)(C)[C@@H]2[C@@H](CCO)O[C@]3(C(=O)N(Cc4ccc(N(C=O)c5ccccc5)cc4)c4ccccc43)[C@H]2C)cc1 as well?
middle

Would you mind doing CC1CC/C=C\[C@H]2OC34C=CCN(C(C)(C)C)C(=O)[C@H]3N(C(C)CO)C(=O)[C@@H]4C2C(=O)O1 (some centres not stated) as well?
middle

Would you mind doing C=CC[C@@]12N=C(c3ccc(OCCCO)cc3)O[C@@H]1c1ccccc1N(C)C2=O as well?
top

Would you mind doing O=C1C[C@@](C(=O)NCCN2CCOCC2)(c2ccc([N+](=O)[O-])cc2)[C@@H](c2ccc(CO)cc2)N1CC12CC3CC(CC(C3)C1)C2 as well?
bottom

Would you mind doing CCCc1cc2c(n1Cc1cc(F)cc(F)c1)C(C)C1CN(C(=O)c3ccccc3)C(C)(C(=O)OC)C21 (configuration not stated) as well?
bottom

Would you mind doing CCOC(=O)C[C@H]1[C@H](OC(=O)c2ccc(C(=O)c3ccccc3)cc2)[C@@H](NC(=O)c2ccccc2)c2cc(OCCCO)ccc2N1C(=O)Cc1ccc(OC)cc1 as well?
middle

Would you mind doing O=C1OCCC/C=C\[C@H]2OC34C=CCN(Cc5ccccc5)C(=O)[C@H]3N(CCCO)C(=O)[C@@H]4C12 (some centres not stated) as well?
top

Would you mind doing CC(C)NC(=O)[C@@H]1c2ccccc2C(=O)N(C2Cc3ccccc3C2)[C@H]1c1ccc(CO)cc1 as well?
top

Would you mind doing CC(C)NC(=O)[C@@]1(c2ccc([N+](=O)[O-])cc2)CC(=O)N(C2CCCCC2)[C@@H]1c1ccc(CO)cc1I as well?
top

====

experiment: RPMI8226 myeloma cell viability, profiling panel, resazurin fluorescence, basal, 24 h, PK04 Diversity Set (AID 1180); conditions: higher = more signal;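 further: RPMI8826 multiple myeloma cell line at 5000 cells per well; test concentration not given here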
endpoint-name: z-score
Returns: the value as a bare number; no unit string appended.

{"columns": ["chemical-smiles", "z-score"],
 "data": [
  ["C=CC[C@]1(C(=O)NCc2ccccc2)N=C(c2ccc(OCCCO)cc2)O[C@H]1c1ccccc1N=[N+]=[N-]", -1.31],
  ["CC#CC(=O)Oc1ccccc1C=CC(=O)OCC", 0.485],
  ["COCCOC(=O)N1C(=O)[C@@]2(c3cc(C#CCNC(N)=O)ccc31)[C@H](C(=O)Nc1nc3ccccc3s1)[C@H]1C(=O)O[C@H](c3ccccc3)[C@H](c3ccccc3)N1[C@@H]2c1ccc(OCCO)cc1", -0.397],
  ["COCCOC(=O)N1C(=O)[C@@]2(c3cc(C#CCC(C(=O)OC)C(=O)OC)ccc31)[C@H](c1ccccc1OCCO)N1[C@H](c3ccccc3)[C@H](c3ccccc3)OC(=O)[C@H]1[C@@H]2C(=O)N1CCN(c2ncccn2)CC1", -0.83],
  ["C=CCOC(=O)[C@H]1[C@@H]2C(=O)O[C@@H](c3ccccc3)[C@@H](c3ccccc3)N2[C@@H](c2ccc(OCCOC(=O)[C@H]3C[C@H]4C(=O)N[C@@H](CCCCN(C)C)C(=O)N4[C@H]3c3ccc(O)cc3)cc2)[C@]12C(=O)Nc1ccc(I)cc12", -0.973]
]}

We now examine a further molecule.
What value of measured z-score is listed for Cc1ccc(S[C@]2(C(=O)NC3CC3)CC(=O)N(Cc3ccccc3)[C@@H]2c2ccc(CO)cc2I)cc1 ?
-1.71

====

target: NADPH oxidase 4 (Homo sapiens) (UniProt Q9NPH5); experiment: NOX4-dependent H2O2 signal modulators, primary screen, NOX inhibitor project, cell-based, HEK293-NOX4, tetracycline-induced, Amplex Red fluorescence (AID 1160); conditions: 45 min, higher = more signal, called active from +8 up or from −8 down
Sequence (Q9NPH5 whole entry, looked up): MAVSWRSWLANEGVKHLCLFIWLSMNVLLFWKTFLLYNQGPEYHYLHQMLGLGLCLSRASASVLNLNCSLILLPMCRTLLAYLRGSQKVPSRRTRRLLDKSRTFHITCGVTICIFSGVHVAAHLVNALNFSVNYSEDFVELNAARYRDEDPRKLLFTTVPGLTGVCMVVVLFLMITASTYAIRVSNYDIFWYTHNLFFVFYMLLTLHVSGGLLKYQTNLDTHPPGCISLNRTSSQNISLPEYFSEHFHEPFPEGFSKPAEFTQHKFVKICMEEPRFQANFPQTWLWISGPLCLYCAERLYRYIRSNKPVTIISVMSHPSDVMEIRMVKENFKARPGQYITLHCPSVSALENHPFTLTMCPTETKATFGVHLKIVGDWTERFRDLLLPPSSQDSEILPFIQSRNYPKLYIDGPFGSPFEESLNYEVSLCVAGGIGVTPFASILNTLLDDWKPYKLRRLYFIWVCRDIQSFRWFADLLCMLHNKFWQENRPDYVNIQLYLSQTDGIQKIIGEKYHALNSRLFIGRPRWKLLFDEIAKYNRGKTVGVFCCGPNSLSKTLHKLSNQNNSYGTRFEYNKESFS
endpoint-name: z-score
Returns: the value as a bare number; no unit string appended.

See these solved cases before continuing.
{"columns": ["chemical-smiles", "reported"],
 "data": [
  ["COCCOC(=O)N1C(=O)[C@@]2(c3ccccc31)[C@H](c1ccccc1OCCO)N1[C@H](c3ccccc3)[C@H](c3ccccc3)OC(=O)[C@H]1[C@@H]2C(=O)N1CCN(c2ncccn2)CC1", -0.44],
  ["C=C(COC)C(=O)CC[C@@H](OC(C)=O)c1ccc(CO)o1", 0.0844],
  ["Cc1nc2cc(Br)ccc2c(=O)o1", -0.0246],
  ["COc1ccc([C@H]2OC[C@@H]3C[C@@H](Cc4ccccc4)C(=O)N32)cc1", 0.524],
  ["COC(=O)C(CC#Cc1ccc2c(c1)[C@]1(C(=O)N2)[C@H](c2ccc(OCCO)cc2)N2[C@H](c3ccccc3)[C@H](c3ccccc3)OC(=O)[C@H]2[C@@H]1C(=O)N1CCc2cc(OC)c(OC)cc2C1)C(=O)OC", 0.632],
  ["C=CCNC(=O)[C@@H]1[C@H]2C(=O)O[C@H](c3ccccc3)[C@H](c3ccccc3)N2[C@H](c2ccc(OCCO)cc2)[C@@]12C(=O)Nc1ccc(C#CCC(C(=O)OC)C(=O)OC)cc12", 0.186]
]}

We now examine a further molecule.
What value of measured z-score is listed for Oc1ccc2cc[n+](Cc3sc4ccccc4c3Cl)cc2c1 ?
-1.23

Attribution: PubChem BioAssay
